The reader will find reported RSL3-induced cell death inhibitory activity (%) at each compound concentration (μmol/l) values listed item by item below.
Tested on: Skin fibroblasts derived from FA patients (GM4078)
Assay: RSL3-induced cell death inhibitory activity in skin fibroblasts derived from FA patients (ATP, CellTiter-Glo)
Format: cell-based, human
Conditions: compound 0.1 μmol/l, 3 μmol/l RSL3, 24 hours
Method: The effects of the compounds according to the present disclosure were evaluated according to the literature (M. G. Cotticelli et al, J Pharmacol Exp Ther 2019, 369, 47-54.). […]
Numbers only here, please. The scale is %.

Prompt: GET /values?readout=RSL3-induced cell death inhibitory activity (%) at each compound concentration (μmol/l)&item= COCc1nn(C)cc1Nc1nn(C2CCC2)c2ccc(C(C)(C)O)cc12
Response: 61.2

Prompt: GET /values?readout=RSL3-induced cell death inhibitory activity (%) at each compound concentration (μmol/l)&item= COc1nn(C)cc1Nc1nn(C)c2ccc(C(C)(C)O)cc12
Response: 40.8

Prompt: GET /values?readout=RSL3-induced cell death inhibitory activity (%) at each compound concentration (μmol/l)&item= COc1nn(C)cc1Nc1nn(CC2CC2(F)F)c2cc(C(C)(C)O)ccc12 (stereo not drawn)
Response: 46.4

Prompt: GET /values?readout=RSL3-induced cell death inhibitory activity (%) at each compound concentration (μmol/l)&item= COc1c(Nc2nn(C)c3cc(C(C)(C)O)ccc23)cnn1CC(C)C
Response: 63.0

Prompt: GET /values?readout=RSL3-induced cell death inhibitory activity (%) at each compound concentration (μmol/l)&item= COCc1nn(C)cc1Nc1nn(C(C)C)c2cc(C(C)(C)O)ccc12
Response: 43.2

Prompt: GET /values?readout=RSL3-induced cell death inhibitory activity (%) at each compound concentration (μmol/l)&item= Cn1ncc(Nc2nn(C)c3cc(C(C)(C)O)ccc23)c1C(F)(F)F
Response: 61.8

Prompt: GET /values?readout=RSL3-induced cell death inhibitory activity (%) at each compound concentration (μmol/l)&item= COc1cc(-c2cnn(C)c2)ccc1Nc1n[nH]c2cc(C(C)(C)O)ccc12
Response: 57.8

Prompt: GET /values?readout=RSL3-induced cell death inhibitory activity (%) at each compound concentration (μmol/l)&item= COc1nn(C)cc1Nc1nn(CC2CC2)c2cc(C(C)(C)O)ccc12
Response: 64.9

Okay, now this molecule:
Prompt: GET /values?readout=RSL3-induced cell death inhibitory activity (%) at each compound concentration (μmol/l)&item= COc1nn(C)cc1Nc1nn(C2CCC2)c2cc(C(C)(C)O)ccc12
Response: 66.1

* * *

The reader will find reported RSL3-induced cell death inhibitory activity (%) at each compound concentration (μmol/l) values listed item by item below.
Test system: Skin fibroblasts derived from FA patients (GM4078)
Test: RSL3-induced cell death inhibitory activity in skin fibroblasts derived from FA patients (ATP, CellTiter-Glo)
Format: cell-based, human
Settings: compound 10 μmol/l, 3 μmol/l RSL3, 24 hours
Numbers only here, please. The scale is %.

Prompt: GET /values?readout=RSL3-induced cell death inhibitory activity (%) at each compound concentration (μmol/l)&item= COc1nn(C)cc1Nc1nn(CC2CC2)c2cc(C(C)(C)O)ccc12
Response: 93.0

Prompt: GET /values?readout=RSL3-induced cell death inhibitory activity (%) at each compound concentration (μmol/l)&item= COc1nn(C)cc1Nc1nn(C(C)C)c2cc(C(C)(C)O)ccc12
Response: 93.2

Prompt: GET /values?readout=RSL3-induced cell death inhibitory activity (%) at each compound concentration (μmol/l)&item= Cn1nc(Nc2cnn3c2CCCC3)c2ccc(C(C)(C)O)cc21
Response: 78.9

Prompt: GET /values?readout=RSL3-induced cell death inhibitory activity (%) at each compound concentration (μmol/l)&item= Cn1nc(Nc2cccc3c2OCC3)c2ccc(C(C)(C)O)cc21
Response: 83.5

Prompt: GET /values?readout=RSL3-induced cell death inhibitory activity (%) at each compound concentration (μmol/l)&item= COc1nn(C)cc1Nc1nn(C2CCC2)c2cc(C(C)(C)O)ccc12
Response: 93.7

Next:
Prompt: GET /values?readout=RSL3-induced cell death inhibitory activity (%) at each compound concentration (μmol/l)&item= COc1nn(C)cc1Nc1nn(C)c2ccc(C(C)(C)O)cc12
Response: 71.7

Prompt: GET /values?readout=RSL3-induced cell death inhibitory activity (%) at each compound concentration (μmol/l)&item= Cn1ncc(Nc2nn(C)c3cc(C(C)(C)O)ccc23)c1C(F)(F)F
Response: 84.6
